Listing of entries alongside the reported PDI N/P:6.
Assay: Dynamic light scattering: LNP particle size and PDI
Format: physicochemical
Settings: LNP, Formulation F4, N/P 6
Experimental readout: PDI N/P:6

INSERT INTO measurements (compound, experimental_readout, reported_value) VALUES
  ('CCCCCCCC/C=C\CCCCCCCC(=O)OCC(COC(=O)CCCCCCC/C=C\CCCCCCCC)(COC(=O)CCC(CCCCCC)OC(=O)NCCN1CCCC1)COC(=O)CC12CC3CC(CC(C3)C1)C2 (stereo not shown) [Compound 3]', 'PDI N/P:6', 0.14),
  ('CCCCC/C=C\CCOC(=O)CCCCCCC(=O)OCC(COC(=O)CCCCCCC(=O)OCC/C=C\CCCCC)(COC(=O)CCC(CCCCCC)OC(=O)NCCN1CCCC1)COC(=O)CCC(OCCCCCCCC)OCCCCCCCC (stereo not shown) [Compound 12]', 'PDI N/P:6', 0.09),
  ('CCCCCCCC/C=C\CCCCCCCC(=O)OCC(COC(=O)CCCCCCC/C=C\CCCCCCCC)(COC(=O)CCCCCCC/C=C\CCCCCCCC)COC(=O)CCC(CCCCCC)OC(=O)NCCN1CCCC1 (stereo not shown) [Compound 1]', 'PDI N/P:6', 0.151),
  ('CCCCC/C=C\CCOC(=O)CCCCC(=O)OCC(COC(=O)CCCCC(=O)OCC/C=C\CCCCC)(COC(=O)CCC(CCCCCC)OC(=O)NCCN1CCCC1)COC(=O)CC12CC3CC(CC(C3)C1)C2 (stereo not shown) [Compound 14]', 'PDI N/P:6', 0.09),
  ('CCCCCCCCOC(CCC(=O)OCC(COC(=O)CCCCCCOC(=O)C(CCCC)CCCCCC)(COC(=O)CCC(CCCCCC)OC(=O)NCCN1CCCC1)COC(=O)CCC(OCCCCCCCC)OCCCCCCCC)OCCCCCCCC (stereo not shown) [Compound 20]', 'PDI N/P:6', 0.05),
  ('CCCCCCCC/C=C\CCCCCCCC(=O)OCC(COC(=O)CCCCCCC/C=C\CCCCCCCC)(COC(=O)CCC(CCCCCC)OC(=O)NCCN1CCCC1)COC(=O)CCC(OCCCCCCCC)OCCCCCCCC (stereo not shown) [Compound 4]', 'PDI N/P:6', 0.12),
  ('CCCCC/C=C\CCOC(=O)CCCCCC(=O)OCC(COC(=O)CCCCCC(=O)OCC/C=C\CCCCC)(COC(=O)CCC(CCCCCC)OC(=O)NCCN1CCCC1)COC(=O)CC12CC3CC(CC(C3)C1)C2 (stereo not shown) [Compound 8]', 'PDI N/P:6', 0.19),
  ('CCCCC/C=C\CCOC(=O)CCCCCC(=O)OCC(COC(=O)CCCCCC(=O)OCC/C=C\CCCCC)(COC(=O)CCCCCC(=O)OCC/C=C\CCCCC)COC(=O)CCC(CCCCCC)OC(=O)NCCN1CCCC1 (stereo not shown) [Compound 7]', 'PDI N/P:6', 0.21),
  ('CCCCC/C=C\CCOC(=O)CCCCCCC(=O)OCC(COC(=O)CCCCCCC(=O)OCC/C=C\CCCCC)(COC(=O)CCC(CCCCCC)OC(=O)NCCN1CCCC1)COC(=O)CC12CC3CC(CC(C3)C1)C2 (stereo not shown) [Compound 11]', 'PDI N/P:6', 0.30),
  ('CCCCCCC(CCC(=O)OCC(COC(=O)CCCCCCOC(=O)C(CCCC)CCCCCC)(COC(=O)CCCCCCOC(=O)C(CCCC)CCCCCC)COC(=O)CCCCCCOC(=O)C(CCCC)CCCCCC)OC(=O)NCCN1CCCC1 (stereo not shown) [Compound 18]', 'PDI N/P:6', 0.05);

====

Test system: mouse organs
Assay: In vivo activity screening in mice: organ mean total flux (p/s) of luciferase activity after injection of F2 LNP pools (Table 6, FIG. 7A-7C)
Settings: Mouse 1, dose 0.3 mg/kg, luciferase mRNA
Marks after values point to notes of the source that are not given here.
Experimental readout: Organ Mean Total Flux Femur

INSERT INTO results (molecule, reported_value) VALUES
  ('CCCCCCCC/C=C\CCCCCCCC(=O)OCC(COC(=O)CCCCCCC/C=C\CCCCCCCC)(COC(=O)CCC(CCCCCC)OC(=O)NCCN1CCCC1)COC(=O)CCC(OCCCCCCCC)OCCCCCCCC (stereo not shown)', '15.6 p/s (×10^6)'),
  ('CCCCCCCC/C=C\CCCCCCCC(=O)OCC(COC(=O)CCCCCCC/C=C\CCCCCCCC)(COC(=O)CCCCCCC/C=C\CCCCCCCC)COC(=O)CCC(CCCCCC)OC(=O)NCCN1CCCC1 (stereo not shown)', '0.8 p/s (×10^6)'),
  ('CCCCC/C=C\C/C=C\CCCCCCCC(=O)OCC(COC(=O)CCCCCCC/C=C\C/C=C\CCCCC)(COC(=O)CCC(CCCCCC)OC(=O)NCCN1CCCC1)COC(=O)CCC(OCCCCCCCC)OCCCCCCCC (stereo not shown)', '6.1 p/s (×10^6)'),
  ('CCCCC/C=C\CCOC(=O)CCCCCCC(=O)OCC(COC(=O)CCCCCCC(=O)OCC/C=C\CCCCC)(COC(=O)CCC(CCCCCC)OC(=O)NCCN1CCCC1)COC(=O)CC12CC3CC(CC(C3)C1)C2 (stereo not shown)', '5.3 p/s (×10^6)'),
  ('CCCCC/C=C\CCOC(=O)CCCCCC(=O)OCC(COC(=O)CCCCCC(=O)OCC/C=C\CCCCC)(COC(=O)CCC(CCCCCC)OC(=O)NCCN1CCCC1)COC(=O)CC12CC3CC(CC(C3)C1)C2 (stereo not shown)', '11.1 p/s (×10^6)'),
  ('CCCCC/C=C\CCOC(=O)CCCCCC(=O)OCC(COC(=O)CCCCCC(=O)OCC/C=C\CCCCC)(COC(=O)CCCCCC(=O)OCC/C=C\CCCCC)COC(=O)CCC(CCCCCC)OC(=O)NCCN1CCCC1 (stereo not shown)', '2.4 p/s (×10^6)'),
  ('CCCCC/C=C\C/C=C\CCCCCCCC(=O)OCC(COC(=O)CCCCCCC/C=C\C/C=C\CCCCC)(COC(=O)CCCCCCC/C=C\C/C=C\CCCCC)COC(=O)CCC(CCCCCC)OC(=O)NCCN1CCCC1 (stereo not shown)', '0.8 p/s (×10^6)'),
  ('CCCCCCCC/C=C\CCCCCCCC(=O)OCC(COC(=O)CCCCCCC/C=C\CCCCCCCC)(COC(=O)CCC(CCCCCC)OC(=O)NCCN1CCCC1)COC(=O)CC12CC3CC(CC(C3)C1)C2 (stereo not shown)', '1.3 p/s (×10^6)'),
  ('CCCCC/C=C\CCOC(=O)CCCCC(=O)OCC(COC(=O)CCCCC(=O)OCC/C=C\CCCCC)(COC(=O)CCC(CCCCCC)OC(=O)NCCN1CCCC1)COC(=O)CC12CC3CC(CC(C3)C1)C2 (stereo not shown)', '9.3 p/s (×10^6)'),
  ('CCCCC/C=C\C/C=C\CCCCCCCCC(CCCCCCCC/C=C\C/C=C\CCCCC)OC(=O)CCCN(C)C [MC3, reference compound]', '8.5 p/s (×10^6)'),
  ('CCCCC/C=C\CCOC(=O)CCCCCCC(=O)OCC(COC(=O)CCCCCCC(=O)OCC/C=C\CCCCC)(COC(=O)CCCCCCC(=O)OCC/C=C\CCCCC)COC(=O)CCC(CCCCCC)OC(=O)NCCN1CCCC1 (stereo not shown)', '7.1 p/s (×10^6)'),
  ('CCCCC/C=C\CCOC(=O)CCCCCCC(=O)OCC(COC(=O)CCCCCCC(=O)OCC/C=C\CCCCC)(COC(=O)CCC(CCCCCC)OC(=O)NCCN1CCCC1)COC(=O)CCC(OCCCCCCCC)OCCCCCCCC (stereo not shown)', '1.3 p/s (×10^6)'),
  ('CCCCC/C=C\CCOC(=O)CCCCCC(=O)OCC(COC(=O)CCCCCC(=O)OCC/C=C\CCCCC)(COC(=O)CCC(CCCCCC)OC(=O)NCCN1CCCC1)COC(=O)CCC(OCCCCCCCC)OCCCCCCCC (stereo not shown)', '7.6 p/s (×10^6)');

====

Listing of entries alongside the reported EE (%) N/P:3.
Experiment: Plate-based fluorescence (RiboGreen) assay: nucleic acid cargo content and encapsulation efficiency of LNPs
Assay type: physicochemical
Details: LNP, Formulation F1, N/P 3
Experimental readout: EE (%) N/P:3

INSERT INTO results (molecule, reported_value) VALUES
  ('CCCCCCCC/C=C\CCCCCCCC(=O)OCC(COC(=O)CCCCCCC/C=C\CCCCCCCC)(COC(=O)CCC(CCCCCC)OC(=O)NCCN1CCCC1)COC(=O)CCC(OCCCCCCCC)OCCCCCCCC (stereo not shown) [Compound 4]', '98%'),
  ('CCCCC/C=C\CCOC(=O)CCCCCCC(=O)OCC(COC(=O)CCCCCCC(=O)OCC/C=C\CCCCC)(COC(=O)CCCCCCC(=O)OCC/C=C\CCCCC)COC(=O)CCC(CCCCCC)OC(=O)NCCN1CCCC1 (stereo not shown) [Compound 10]', '98%'),
  ('CCCCCCCC/C=C\CCCCCCCC(=O)OCC(COC(=O)CCCCCCC/C=C\CCCCCCCC)(COC(=O)CCCCCCC/C=C\CCCCCCCC)COC(=O)CCC(CCCCCC)OC(=O)NCCN1CCCC1 (stereo not shown) [Compound 1]', '97%'),
  ('CCCCC/C=C\C/C=C\CCCCCCCC(=O)OCC(COC(=O)CCCCCCC/C=C\C/C=C\CCCCC)(COC(=O)CCC(CCCCCC)OC(=O)NCCN1CCCC1)COC(=O)CCC(OCCCCCCCC)OCCCCCCCC (stereo not shown) [Compound 6]', '99%');
